systemName: soluble ectodomain of sortilin-6his (Homo sapiens, UniProt Q99523, V650M)
Construct: the soluble ectodomain of sortilin-6his is measured by microscale thermophoresis (MST)
Sequence (Q99523 with tags, fused parts or gaps V650M): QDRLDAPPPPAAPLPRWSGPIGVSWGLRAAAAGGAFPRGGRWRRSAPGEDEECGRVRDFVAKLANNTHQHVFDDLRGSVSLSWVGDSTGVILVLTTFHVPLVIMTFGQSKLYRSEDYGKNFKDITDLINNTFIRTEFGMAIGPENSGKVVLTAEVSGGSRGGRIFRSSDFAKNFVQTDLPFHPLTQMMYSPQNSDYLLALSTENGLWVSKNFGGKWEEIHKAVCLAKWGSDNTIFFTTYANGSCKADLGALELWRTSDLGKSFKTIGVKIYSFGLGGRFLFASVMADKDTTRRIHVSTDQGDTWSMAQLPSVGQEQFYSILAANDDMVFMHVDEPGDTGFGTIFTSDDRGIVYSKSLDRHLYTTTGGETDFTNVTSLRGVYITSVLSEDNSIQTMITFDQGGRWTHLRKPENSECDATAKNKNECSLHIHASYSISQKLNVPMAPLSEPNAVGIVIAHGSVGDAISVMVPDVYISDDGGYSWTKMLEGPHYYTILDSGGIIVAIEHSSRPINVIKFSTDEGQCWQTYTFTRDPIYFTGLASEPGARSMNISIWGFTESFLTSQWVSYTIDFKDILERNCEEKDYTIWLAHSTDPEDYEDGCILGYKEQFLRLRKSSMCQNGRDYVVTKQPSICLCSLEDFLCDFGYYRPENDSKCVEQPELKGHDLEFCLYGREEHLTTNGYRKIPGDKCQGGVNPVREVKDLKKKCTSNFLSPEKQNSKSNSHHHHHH
measurementNotes: MST binding to soluble ectodomain of sortilin-6his
pKd: −log10 of the molar value.
assayEndpoint: pKd

Worked cases, pKd given:
CC(C)(C)CC[C@H](NC(=O)c1ccc(Oc2cccc(OCCOCCOCCOCCOCCOCCOCCNc3ccc([N+](=O)[O-])cc3[N+](=O)[O-])c2)nc1)C(=O)O
6.60 to 8.00
CC(C)(C)CC[C@H](NC(=O)c1ccc(Oc2cccc(OCCOCCOCCOCCOCCOCCNc3ccc([N+](=O)[O-])cc3[N+](=O)[O-])c2)nc1)C(=O)O
8.00 to 9.00

Now for the molecule whose pKd we want.
Report pKd for "CC(C)(C)CC[C@H](NC(=O)c1ccc(Oc2cccc3c(C(=O)NCCCNC(=O)CCOCCOCCOCCNc4ccc([N+](=O)[O-])cc4[N+](=O)[O-])cccc23)nc1)C(=O)O"
8.00 to 9.00

----------
systemName: Streptavidin-d2 and Sortilin-6His (UniProt P22629+Q99523, V650M)
Construct: ternary complex formation composed of streptavidin, bifunctional compound and sortilin-6his
measurementNotes: TR-FRET ternary complex formation streptavidin / small molecule bifunctional compound / sortilin
Assay type: binding
conditionParameters: Table 5; 5 μM-0.6 pM, […] incubation
assayEndpoint: AUC score, ternary complex formation

Worked cases, AUC score, ternary complex formation given:
CC(C)(C)CC[C@H](NC(=O)c1ccc(Oc2cccc(OCCOCCOCCOCCOCCOCCOCCOCCOCCNC(=O)CCCC[C@@H]3SC[C@@H]4NC(=O)N[C@@H]43)c2)nc1)C(=O)O
++ (AUC > 25.000)
CC(C)(C)CC[C@H](NC(=O)c1ccc(Oc2cccc(C(=O)NCCOCCOCCOCCOCCOCCOCCNC(=O)CCCC[C@@H]3SC[C@@H]4NC(=O)N[C@@H]43)c2)nc1)C(=O)O
+ (AUC < 25.000)
CC(C)(C)CC[C@H](NC(=O)c1ccc(Oc2cccc(OCCOCCOCCOCCOCCOCCNC(=O)CCCC[C@@H]3SC[C@@H]4NC(=O)N[C@@H]43)c2)nc1)C(=O)O (stereo in doubt)
+ (AUC < 25.000)
CC(C)(C)CC[C@H](NC(=O)c1ccc(Oc2cccc(OCCOCCOCCOCCOCCOCCOCCOCCNC(=O)CCCC[C@@H]3SC[C@@H]4NC(=O)N[C@@H]43)c2)nc1)C(=O)O
+ (AUC < 25.000)
CC(C)(C)CC[C@H](NC(=O)c1ccc(Oc2cccc(OCCOCCOCCOCCOCCOCCOCCNC(=O)CCCC[C@@H]3SC[C@@H]4NC(=O)N[C@@H]43)c2)nc1)C(=O)O
+ (AUC < 25.000)

Now for the compound whose AUC score, ternary complex formation we want.
Retrieve AUC score, ternary complex formation on Streptavidin-d2 and Sortilin-6His (UniProt P22629+Q99523, V650M); query "CC(C)(C)CC[C@H](NC(=O)c1ccc(Oc2cccc3c(C(=O)NCCCNC(=O)CCOCCOCCOCCOCCNC(=O)CCCC[C@@H]4SC[C@@H]5NC(=O)N[C@@H]54)cccc23)nc1)C(=O)O"
++ (AUC > 25.000)

----------
systemName: soluble ectodomain of sortilin-6his (Homo sapiens, UniProt Q99523, V650M)
Construct: the soluble ectodomain of sortilin-6his is measured by microscale thermophoresis (MST)
measurementNotes: MST binding to soluble ectodomain of sortilin-6his
assayEndpoint: Kd

Worked cases, Kd given:
CC(C)(C)CC[C@H](NC(=O)c1ccc(Oc2cccc(C(=O)NCCOCCOCCOCCOCCOCCOCCOCCNc3ccc([N+](=O)[O-])cc3[N+](=O)[O-])c2)nc1)C(=O)O
1 to 10 nM
CC(C)(C)CC[C@H](NC(=O)c1ccc(Oc2cccc(C(=O)NCCOCCOCCOCCOCCOCCOCCNc3ccc([N+](=O)[O-])cc3[N+](=O)[O-])c2)nc1)C(=O)O
1 to 10 nM

Now for the compound whose Kd we want.
Report Kd for "CC(C)(C)CC[C@H](NC(=O)c1ccc(Oc2cccc3c(C(=O)NCCCNC(=O)CCOCCOCCOCCOCCNc4ccc([N+](=O)[O-])cc4[N+](=O)[O-])cccc23)nc1)C(=O)O"
1 to 10 nM

Source listed as patent US20250345446A1.
